# system_tested: (Lyso)-N-acylphosphatidylethanolamine lipase (Mus musculus) (UniProt Q8VD66)
# Sequence (Q8VD66 whole entry, looked up): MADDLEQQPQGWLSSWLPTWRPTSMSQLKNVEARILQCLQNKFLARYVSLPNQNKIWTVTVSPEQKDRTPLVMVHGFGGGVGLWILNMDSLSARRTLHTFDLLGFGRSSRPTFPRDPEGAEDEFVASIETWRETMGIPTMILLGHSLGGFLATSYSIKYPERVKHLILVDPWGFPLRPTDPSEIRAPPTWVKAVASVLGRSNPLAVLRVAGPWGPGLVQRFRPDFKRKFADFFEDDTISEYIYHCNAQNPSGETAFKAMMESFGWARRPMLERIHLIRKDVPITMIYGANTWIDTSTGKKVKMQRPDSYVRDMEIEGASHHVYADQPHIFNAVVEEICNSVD
# procedure_text: ABHD4 inhibitors, primary screen, biochemical, fluorescence polarization, mouse (AID 720543);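 note: 0% = plate median of compound wells and 100% = S159A mutant with DMSO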
# reported_conditions: purified mABHD4, FP-Rh probe fluorescence polarization; at 8.92 µM; hits give high values
Among all 370,000 compounds or so, about 2,000 (0.54%) were called active. The sample as a whole holds a higher share of actives than the screen did.
reported_metric: inhibition

• Oc1ccc(N=Cc2sc3ccccc3c2Cl)cc1 = 88.4% (active)
• Oc1ccc(N=Cc2c(O)ccc3ccccc23)cc1 = 51.1% (active)
• O=C(OCc1ccccc1)N1CCC2CC1c1cc(N3CCN(S(=O)(=O)c4cc(Cl)cc(Cl)c4)CC3)ccc12 (stereo unspecified) = 2.29% (inactive)
• CNC(=S)NNC(=O)c1oc2nc(-c3ccccc3)cc(-c3ccco3)c2c1N = 37.3% (active)
• O=C(CN1CCCCCC1)N1c2ccccc2Sc2ccc(C(F)(F)F)cc21 = -5.91% (inactive)
• CN(C1CCS(=O)(=O)C1)S(=O)(=O)c1ccc2ccccc2c1 (stereo unspecified) = 3.99% (inactive)
• COC(=O)C1=C(C)N(Cc2ccc(C(F)(F)F)cc2)C(=NCc2ccccc2)NC1c1ccccc1C(F)(F)F (stereo unspecified) = 6.99% (inactive)
• CC(=O)Oc1ccc(N(C(C)=O)S(=O)(=O)c2ccc3ccccc3c2)cc1Br = 32.3% (active)
• COC(=O)CC1CCc2cc(C)cc(C(CC(C)C)NC(=O)[C@H](CC(C)C)NC(=O)OCc3ccccc3)c2O1 (stereo partly specified) = 1.24% (inactive)
• CCCOc1cccc(C(=O)Nc2nnn(CCC)n2)c1 = 7.16% (inactive)
• COC(=O)c1oc2ccc(Br)cc2c1NC(C)=O = 40.3% (active)
• CCC(CO)Oc1cc(NC(=O)c2cccc(F)c2)c2ncn(C(C)C)c2c1 (stereo unspecified) = 44.4% (active)
• COCc1cc(N2CCN(C(=O)OC(C)(C)C)C[C@@H]2C)ccc1N1CCN(Cc2ccccc2)[C@H](C)C1 = -12.1% (inactive)
• CCN1CCN(C(=O)CN(C)S(=O)(=O)c2ccc3ccccc3c2)CC1 = 4.18% (inactive)
• CCN(CC(=O)NCc1cccs1)C(=O)c1cccc(S(=O)(=O)Nc2ccccc2OC)c1 = -5.42% (inactive)
• C[C@H](C(=O)N(C)c1ccccc1)[C@@H](O)c1ccc(Cl)cc1 = 0.42% (inactive)
• COc1cccc(/C=N/Nc2ccc(S(=O)(=O)Nc3ccccc3C(=O)O)cc2[N+](=O)[O-])c1O = 70.3% (active)
• COC(=O)c1[nH]c2ccc(Br)cc2c1NC(=O)Oc1ccccc1 = -1.15% (inactive)
• O=C(C(=O)N1CCC(CNC(=O)c2cccnc2Cl)CC1)c1cccs1 = 2.01% (inactive)
• Cc1nccc(-c2ccc(-n3c(C)ccc3C)cc2)n1 = -7.18% (inactive)
• CCOc1ccccc1NS(=O)(=O)c1c[nH]c(C(=O)OC)c1 = -5.46% (inactive)

---

Each item that follows carries a reported inhibition.
# system_tested: (Lyso)-N-acylphosphatidylethanolamine lipase (Mus musculus) (UniProt Q8VD66)
# procedure_text: ABHD4 inhibitors, primary screen, biochemical, fluorescence polarization, mouse (AID 720543);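 note: 0% = plate median of compound wells and 100% = S159A mutant with DMSO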
# reported_conditions: purified mABHD4, FP-Rh probe fluorescence polarization; at 8.92 µM; hits give high values
About 2,000 (0.54%) of roughly 370,000 compounds were called active. This is one part of a sample in which actives are shown more often than they occur.
reported_metric: inhibition

• CCOC(=O)C1Nc2ccc(C(F)(F)F)cc2C2C=CCC12 (stereo unspecified) = 41.8% (active)
• Cc1oc2cc(Br)c(O)c(Br)c2c1C(=O)c1ccccc1 = 44.9% (active)
• CC1CN(C2CCCCC2)c2nc3c(c(=O)n(C)c(=O)n3C)n2C1 (stereo unspecified) = -5.35% (inactive)
• O=C(COc1ccc(Cl)cc1)NCCSc1ccccc1 = -6.3% (inactive)
• O=C1c2ccccc2C(=O)C1C(=O)C1CC1 = 10.5% (inactive)
• CCOC(=O)/C=C/c1ccc(C(F)(F)F)cc1S(=O)(=O)NC(C)(C)C = -26.5% (inactive)
• Cc1cc2ccccc2n1CCNC(=O)COc1ccc2ccccc2c1 = 40.9% (active)
• COc1cc(/C(=C/c2ccccc2)c2ccccc2)c2c(c1)oc1ccccc12 = -1.7% (inactive)
• Clc1ccc(C2=CSC3=Nc4cccc5cccc(c45)N23)cc1 = 38.4% (active)
• Cc1ccccc1OCC(=O)NCC(=O)OCC(=O)c1ccc2ccccc2c1 = 3.01% (inactive)
• CCOC(=O)Cn1c2c(n(-c3ccc(F)cc3)c1=O)C=C(c1ccccc1)[C@@H](C)C(C(=O)N(C)C1CCCCC1)=C2 = 34.2% (active)

---

# system_tested: (Lyso)-N-acylphosphatidylethanolamine lipase (Mus musculus) (UniProt Q8VD66)
# procedure_text: ABHD4 inhibitors, primary screen, biochemical, fluorescence polarization, mouse (AID 720543);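 note: 0% = plate median of compound wells and 100% = S159A mutant with DMSO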
# reported_conditions: purified mABHD4, FP-Rh probe fluorescence polarization; at 8.92 µM
The whole screen tested about 370,000 compounds, of which about 2,000 (0.54%) were called active.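 The calls were made as follows: active = inhibition exceeding the mean over every tested compound plus 3 SD (cut at about 30% in these data); inactive = the rest.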 Only a selection was taken, and actives are over-represented in it overall.
Outcomes: True for active, False for inactive

* O=C(CCS(=O)(=O)c1ccccc1)Nc1ccc(Cl)c(Cl)c1 | False
* O=C(CSc1nc2ccccc2n1Cc1ccccc1Cl)N/N=C\c1c[nH]c2ccccc12 | False
* O=C(O)C1C2CC2CN1C(=O)c1ccc(Cl)cc1Cl (stereo not drawn) | False
* CC(C)C(=O)N1c2ccccc2NC2=C(C(=O)CCC2)C1c1ccc(N(C)C)cc1 (stereo not drawn) | False
* CCn1c(=O)n2n(c1=O)[C@@]1(C=C3CCCC[C@H]32)N=C(NC(=O)c2ccccc2)N(Cc2ccccc2)[C@H]1Cc1ccccc1 | False
* O=C(Nn1c(SCc2ccc([N+](=O)[O-])cc2)nc2ccccc2c1=O)c1ccc(F)cc1 | False
* CCOc1c(Br)cc(/C=C2\C(=O)N(CCC#N)N=C2C)cc1OC | False
* OCCNc1nc(Nc2ccc(Cl)c(Cl)c2)nc2ccccc12 | True
* CCN(CC)CCCC(C)n1c2nc(=O)[nH]c(=O)c-2nc2cc(Cl)ccc21 (stereo not drawn) | True
* O=C(CSc1nc2ccccc2s1)N=Nc1c(O)[nH]c2ccccc12 | False
* O=C(NCc1cccs1)C1CCCN(S(=O)(=O)c2ccc([N+](=O)[O-])cc2)C1 (stereo not drawn) | False
* CC1CCN(c2ccc(C(=O)Nc3nnc(C4CC4)s3)cc2[N+](=O)[O-])CC1 | False
* CC(=O)Nc1nc2ncccn2c1-c1ccc(C(F)(F)F)cc1 | False
* CC(C)(C)c1ccc(S(=O)(=O)NC(=O)C2(C)CCN2C(=O)CC2CC2)cc1 (stereo not drawn) | False
* c1csc(-c2nnc(COc3ccc4c(c3)OCO4)o2)c1 | False
* O=C(CSc1nc2ccccc2s1)NN=Cc1ccc(O)cc1O | False
* NC1=CC(=O)C(=O)c2cccnc21 | True
* CCOc1cc(C(=O)N2CCc3cc(OC)c(OC)cc3C2)ccc1OC(F)F | False
* COc1ccc([C@H]2OC(=O)C[C@H]2C(=O)N2CCN(c3ccccc3F)CC2)cc1OC | False
* O=Nc1c(O)cc(O)c2ccccc12 | True
* CCCC(=O)N1CCC1(C)C(=O)NS(=O)(=O)c1ccc(Cl)cc1 (stereo not drawn) | False
* Cc1ccc2c(C(=O)CN3CCCC3)c(C)[nH]c2c1 | False
* CCCc1ccc(C(O)c2ncc(-c3cccc(OC)c3)[nH]2)cc1 (stereo not drawn) | False
* Cc1cccc(C(=O)NC(=S)N2CCN(c3ccc([N+](=O)[O-])cc3)CC2)c1 | False
* O=C1C=CC(=O)N1c1ccc(N2CCCCC2)cc1 | True
* CCOc1cc(/C=C2/N=C(c3ccc(C(C)(C)C)cc3)OC2=O)cc(Cl)c1OS(C)(=O)=O | True
* CC(C)(C)NC(=O)C(c1cccnc1)N(C(=O)c1cnco1)c1ccc(C(C)(C)C)cc1 (stereo not drawn) | False
* C/C=C/C(=O)OCc1csc(CC(=O)Nc2ccccc2C)n1 | False

---

Each item that follows carries a reported inhibition.
# system_tested: (Lyso)-N-acylphosphatidylethanolamine lipase (Mus musculus)
# procedure_text: ABHD4 inhibitors, primary screen, biochemical, fluorescence polarization, mouse (AID 720543);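 note: 0% = plate median of compound wells and 100% = S159A mutant with DMSO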
# reported_conditions: purified mABHD4, FP-Rh probe fluorescence polarization; at 8.92 µM; hits give high values
Out of some 370,000 compounds screened, about 2,000 (0.54%) were called active. This is one part of a sample in which actives are shown more often than they occur.
reported_metric: inhibition (%)

* O=S(=O)(/N=C(/Nc1ccccc1)c1ccccc1)c1cccs1 | 1.09
* O=C(c1cccc(C(F)(F)F)c1)N1CC[C@H]2[C@H](CCCN2Cc2cc(F)cc(F)c2)C1 | -3.78
* COc1ccc2nc(Nc3nc4ccc(NC(C)=O)cc4s3)sc2c1 | 37.7
* CCOc1ccc2nc(Nc3nc4ccc(NC(C)=O)cc4s3)sc2c1 | 35.1

Reference for the values: PubChem BioAssay AID720543
